System: T1, human CAPRIN-1 protein on the cell surfaces of human cancer cell lines and in human cancer tissues (human, UniProt Q14444 2-709)
T1 sequence (looked up): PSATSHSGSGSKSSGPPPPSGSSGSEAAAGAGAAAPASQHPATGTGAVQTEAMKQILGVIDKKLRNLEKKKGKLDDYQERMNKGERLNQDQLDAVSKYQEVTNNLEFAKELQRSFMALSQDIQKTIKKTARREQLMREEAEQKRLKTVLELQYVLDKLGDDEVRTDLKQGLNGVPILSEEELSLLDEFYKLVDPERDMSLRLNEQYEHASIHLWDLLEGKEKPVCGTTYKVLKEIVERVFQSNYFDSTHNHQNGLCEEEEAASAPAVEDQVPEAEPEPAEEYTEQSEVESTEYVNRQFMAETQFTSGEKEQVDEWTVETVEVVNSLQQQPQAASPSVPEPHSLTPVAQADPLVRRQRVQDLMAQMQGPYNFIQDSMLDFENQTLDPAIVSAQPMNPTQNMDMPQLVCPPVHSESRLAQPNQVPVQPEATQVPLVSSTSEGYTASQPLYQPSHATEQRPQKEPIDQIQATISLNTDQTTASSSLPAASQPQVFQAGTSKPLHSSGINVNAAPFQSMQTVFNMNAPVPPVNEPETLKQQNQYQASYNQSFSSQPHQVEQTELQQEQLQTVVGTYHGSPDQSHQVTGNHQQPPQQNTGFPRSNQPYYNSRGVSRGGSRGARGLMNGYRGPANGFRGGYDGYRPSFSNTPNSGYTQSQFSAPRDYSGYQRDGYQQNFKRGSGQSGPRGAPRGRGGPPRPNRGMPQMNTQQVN
Measurement protocol: cell-based or functional assay
# cytotoxic activity (ADCC) against U373 per entry
Measurement type: cytotoxic activity (ADCC) against U373

{"columns": ["Binder", "Measured result"],
 "data": [
  ["human-chicken chimeric antibody #1 having the chicken monoclonal antibody #1 variable region (antibody, V domains shown, also called anti-CAPRIN-1 antibody #1; human-chicken chimeric monoclonal antibody (#1); not shown: human IgG1 H-chain constant region; human IgG1 L-chain constant region) VH: AVTLDESGGGLQMSRGGLSLVCKASGFDFSSYQMNWIRQAPGKGLEFVAAINKFGNSTGHGAAVKGRVTISRDNGQSTVRLQLNNLRAEDTAIYFCTKHAYGYCGSGTWCAAGEIDAWGHGTEVIVSS VL: QAASTQPSSVSANPGETVEITCSGGGSYSYGWFQQKSPGSAPVTVIYYNNKRPSDIPSRFSGSKSGSTGTLTITGVQADDEAVYYCGSGDSTDTAVFGAGTTLTVLG", "23.3%"],
  ["anti-CAPRIN-1 mouse monoclonal antibody #4 (antibody, V domains shown) VH: GAELVRSGASVKMSCKASGYSFTDYNMYWVKQTPGQGLEWIGYIYPGNGGTNYNQKFKGKATLTADTSSSTAYMQISSLTSEDSAVYFCARDYDDGGYAMDYWGQGTTVTVSS VL: DIQMTQSPASLSASVGETVTITCRASGNIHNYLTWYQQKQGKSPQLLVYNAKTLADGVPSRFSGSGSGTQYSLKINRLQPEDFGSYYCQHFWNIPWTFGGGTKLNSR", "≥ 16%"],
  ["anti-CAPRIN-1 mouse monoclonal antibody #5 (antibody, V domains shown, Mouse hybridoma antibody; detected with anti-mouse IgG) VH: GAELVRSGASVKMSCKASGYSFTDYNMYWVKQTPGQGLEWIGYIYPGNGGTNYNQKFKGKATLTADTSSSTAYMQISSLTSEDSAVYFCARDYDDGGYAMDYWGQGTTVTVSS VL: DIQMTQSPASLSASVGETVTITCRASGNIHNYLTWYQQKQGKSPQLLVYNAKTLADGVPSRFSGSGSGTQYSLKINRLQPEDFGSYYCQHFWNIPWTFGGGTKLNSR", "≥ 16%"],
  ["anti-CAPRIN-1 mouse monoclonal antibody #6 (antibody, V domains shown, Mouse hybridoma antibody; detected with anti-mouse IgG) VH: DAELVKPGASVKISCKASGYTFTDHSIHWVQQKPEQGLEWIGYISPGNGNIKYNEKFKGKATLTADKSSSTAYMQLNSLTSEDSAVYFCKRSLGRGGPYYFDYWGQGTTVTVSS VL: DIVLTQAAPSLPVTPGESVSISCRSSKSLLHSNGNTYLYWFLQRPGQSPQLLIYRMSNLASGVPDRFSGSGSGTAFTLRISRVEAEDVGVYYCMQHREYPVTFGSGPN", "≥ 16%"]
]}
